Just for reference, patent US20250223281A1 is where these values come from.

Target system: GPR40 (Homo sapiens)
Construct: expressed in transfected cells; host or cells: HEK293 cells stably expressing GPR40 (Hygromycin selection)
Sequence (O14842 whole entry): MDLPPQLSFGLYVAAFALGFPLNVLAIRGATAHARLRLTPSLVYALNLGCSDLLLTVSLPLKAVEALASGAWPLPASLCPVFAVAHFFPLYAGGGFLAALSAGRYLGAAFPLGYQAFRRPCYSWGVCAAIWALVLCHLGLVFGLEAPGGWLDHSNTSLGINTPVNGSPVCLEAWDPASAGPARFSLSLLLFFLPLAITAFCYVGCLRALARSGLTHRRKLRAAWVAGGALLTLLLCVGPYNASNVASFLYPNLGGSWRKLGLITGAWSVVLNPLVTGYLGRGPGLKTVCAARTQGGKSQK
Assay text: IP1 accumulation assay in HEK293 cells stably expressing GPR40
Assay type: cell-based
Measurement context: Tables A-1a to A-7b (structure-property relationship); obtained by methods of Biological Example 1
Procedure: IP1 accumulation assay was used to evaluate the potency of compounds. […] Assay plate was incubated at room temperature for 60 min and then read at 665 nm/615 nm on an Envision plate reader (PerkinElmer). […] Dose curve was fitted and EC50 of each compound was calculated by using XLFit.
Readout kind: EC50 (nM)
A number alone suffices; assume nM.

Known EC50 results, listed for orientation:
GET /values?readout=EC50&item= C[C@H](C(=O)O)[C@H](c1ccc2c(c1)O[C@@H](C1CCN(Cc3cc(-c4cn(CCCCCCCCCCCCCCCC(=O)NCC[N+](C)(CCC(=O)NCCN)CCC(=O)NCCN)nn4)ccc3OC(F)(F)F)CC1)CC2)C1CC1 [Example 84]
0.74

Which EC50 is listed for COc1ccc(C(=O)N(CC(C)(C)CCn2cc(CCCCCCCCCCCCCCCCC(=O)NCCC[N+](C)(CC(=O)[O-])CC(=O)O)nn2)c2cccc(C)n2)c(N2CCC(COc3cc([C@@H](CC(=O)O)C4CC4)ccn3)CC2)c1 (stereo partly drawn) [Example 133] ?
0.08

Moving on to the next compound.
Report EC50 for COc1ccc(F)c(-c2ccc(COc3cccc([C@@H](CC(=O)O)C4CC4)c3)cc2CC(C)(C)Cn2cc(CCCCCCCCCC(=O)NCCN(CCC(=O)NCCN)CCC(=O)NCCN)nn2)c1 [Example 191] please.
204
